molecular target: Adrenergic receptor alpha-2 (Rattus norvegicus, UniProt P22086+P19328+P22909); assay: Binding affinity against Alpha-2 adrenergic receptor by displacing [3H]rauwolscine radioligand in rat cortex membrane; format: cell membranes, Brain
Test readout: Ki (nM)

For orientation, consider the following solved cases.
> print(dat)
                            molecule.smiles  test.readout  readout.number
1  O=c1ccc(-n2cnc3ccccc32)nn1CCCCCCCN1CCN(c2ccccc2Cl)CC1            Ki            10.3
2  COc1ccccc1N1CCN(CCn2nc(-n3cnc4ccccc43)ccc2=O)CC1            Ki             350
3  O=c1ccc(-n2ccnc2)nn1CCCCCCCN1CCN(c2ccccc2Cl)CC1            Ki            24.5

1. O=c1ccc(-n2cnc3ccccc32)nn1CCN1CCN(c2ccccc2Cl)CC1
2. COc1ccccc1N1CCN(CCCCCCCn2nc(-n3ccnc3)ccc2=O)CC1
3. COc1ccccc1N1CCN(CCn2nc(-n3ccc4ccccc43)ccc2=O)CC1
4. O=c1ccc(-n2cnc3ccccc32)nn1CCCCCN1CCN(c2ccccc2Cl)CC1
INPUT: Ordering: ascending Ki. Dear reader, please state the labels in the requested order.
OUTPUT: 2, 4, 1, 3
